system: B. subtilis
Property: MIC (µg/mL)
One number for each entry, in µg/mL.

Past entries and their recorded results:
Compound	Experimental target	Unit label	MIC
CCCCc1ccc(S(=O)(=O)Br)s1	B. subtilis	µg/mL	100
O=S(=O)(Br)c1sc(Br)c(Br)c1Br	B. subtilis	µg/mL	50

Batch of 3 compounds: report MIC for each.
1. O=S(=O)(Br)c1ccc(Cl)s1 [5-Cl, 5-Chloro-2-thiophenesulfonyl Bromide]
2. O=S(=O)(Br)c1ccc(Br)s1 [5-Br, 5-Bromo-2-thiophenesulfonyl Bromide]
3. O=S(=O)(Br)c1cccs1 [H, 2-Thiophenesulfonyl Bromide]

500
100
100

List the reported MIC of each compound below.
1. O=S(=O)(Br)c1cc(Br)c(Br)s1
2. CCc1ccc(S(=O)(=O)Br)s1
3. O=S(=O)(Br)c1sc(Br)cc1Br

1: 50; 2: 100; 3: 50

###

Exercise: state measured MIC for each of the compounds provided.
tested on: C. pelliculosa
Numbers only, in mg/L.

Compound	Experimental target	Unit label	Meas value
O=S(=O)(Cl)c1cc(Br)c(Br)s1 [4,5-Br2, reference compound]	C. pelliculosa	mg/L	100

Would you mind giving MIC for every compound in the list below?
1. O=S(=O)(Br)c1sc(Br)c(Br)c1Br [3,4,5-Br3]
2. CCCCc1ccc(S(=O)(=O)Br)s1 [5-butyl]

50
100

###

tested on: T. mentagrophytes
I'd be grateful if you could share measured MIC for these entries.
Give bare numbers, in µg/mL.

Compound	Experimental target	Unit label	MIC
O=S(=O)(Br)c1ccc(Br)s1 [5-Br, 5-Bromo-2-thiophenesulfonyl Bromide]	T. mentagrophytes	µg/mL	100
O=S(=O)(Br)c1sc(Br)cc1Br	T. mentagrophytes	µg/mL	50
O=S(=O)(Cl)c1cc(Br)c(Br)s1 [4,5-Br2, reference compound]	T. mentagrophytes	µg/mL	100
O=S(=O)(Br)c1cccs1 [H, 2-Thiophenesulfonyl Bromide]	T. mentagrophytes	µg/mL	100

# evaluate next
What measured MIC goes with O=S(=O)(Br)c1ccc(Cl)s1 [5-Cl, 5-Chloro-2-thiophenesulfonyl Bromide] ?
100

###

Parameter 'readout' = MIC; parameter 'system' = A. aerogenes.

Compound	Meas value
O=S(=O)(Br)c1sc(Br)c(Br)c1Br [3,4,5-Br3]	> 100 µg/mL

For each listed entry, give its MIC.
1. O=S(=O)(Cl)c1sc(Br)c(Br)c1Br [3,4,5-Br3, reference compound]
2. O=S(=O)(Br)c1ccc(Cl)s1 [5-Cl, 5-Chloro-2-thiophenesulfonyl Bromide]
3. CCCCc1ccc(S(=O)(=O)Cl)s1 [5-butyl, reference compound]

1: > 100 µg/mL; 2: 500 µg/mL; 3: > 500 µg/mL

###

test system: C. pelliculosa
Property: MIC (µg/mL)
One number for each entry, in µg/mL.

Some solved cases for reference:
Compound	Property	Meas value
O=S(=O)(Br)c1cc(Br)c(Br)s1	MIC	100
O=S(=O)(Br)c1sc(Br)cc1Br	MIC	50
O=S(=O)(Br)c1cccs1 [H, 2-Thiophenesulfonyl Bromide]	MIC	100
O=S(=O)(Br)c1ccc(Br)s1 [5-Br, 5-Bromo-2-thiophenesulfonyl Bromide]	MIC	100
O=S(=O)(Br)c1ccc(Cl)s1 [5-Cl, 5-Chloro-2-thiophenesulfonyl Bromide]	MIC	100

// map "CCc1ccc(S(=O)(=O)Br)s1" to recorded MIC (system: C. pelliculosa)
100

###

Provide the reported MIC of each item.
test system: T. mentagrophytes

Example results:
Molecule	MIC
O=S(=O)(Br)c1cc(Br)c(Br)s1	100 µg/mL
O=S(=O)(Br)c1sc(Br)c(Br)c1Br	50 µg/mL
CCCCc1ccc(S(=O)(=O)Br)s1	100 µg/mL
CCCCc1ccc(S(=O)(=O)Cl)s1 [5-butyl, reference compound]	500 µg/mL

Below: the item to evaluate.
Which MIC is listed for "CCc1ccc(S(=O)(=O)Br)s1" ?
100 µg/mL

###

tested on: A. aerogenes
Provide the recorded MIC for the entries that follow.
Answers are plain numbers, in µg/mL.

Molecule	MIC [µg/mL]
O=S(=O)(Br)c1ccc(Br)s1 [5-Br, 5-Bromo-2-thiophenesulfonyl Bromide]	500
O=S(=O)(Br)c1cccs1 [H, 2-Thiophenesulfonyl Bromide]	100

Below is a list of molecules. For each, state its recorded MIC.
1. O=S(=O)(Br)c1sc(Br)cc1Br
2. O=S(=O)(Br)c1cc(Br)c(Br)s1
3. CCCCc1ccc(S(=O)(=O)Br)s1
4. CCc1ccc(S(=O)(=O)Br)s1

50
100
500
500

###

S. aureus data, read-out MIC
One number for each entry, in µg/mL.

See these solved cases before continuing.
Compound	Experimental target	MIC [µg/mL]
Cc1ccc(S(=O)(=O)Br)s1	S. aureus	100
O=S(=O)(Br)c1ccc(Cl)s1 [5-Cl, 5-Chloro-2-thiophenesulfonyl Bromide]	S. aureus	500
O=S(=O)(Br)c1cc(Br)c(Br)s1	S. aureus	50
CCCCc1ccc(S(=O)(=O)Br)s1	S. aureus	500
O=S(=O)(Br)c1sc(Br)cc1Br	S. aureus	50
O=S(=O)(Br)c1cccs1 [H, 2-Thiophenesulfonyl Bromide]	S. aureus	500
CCc1ccc(S(=O)(=O)Br)s1	S. aureus	500
O=S(=O)(Br)c1ccc(Br)s1 [5-Br, 5-Bromo-2-thiophenesulfonyl Bromide]	S. aureus	500

For "O=S(=O)(Br)c1sc(Br)c(Br)c1Br" , what is its reported MIC?
50

###

Listed here: compounds with reported MIC for E. coli.
Give bare numbers, in µg/mL.

Recorded MIC, per entry:
Compound	MIC / µg/mL
CCCCc1ccc(S(=O)(=O)Br)s1 [5-butyl]	500
O=S(=O)(Br)c1ccc(Br)s1 [5-Br, 5-Bromo-2-thiophenesulfonyl Bromide]	500
O=S(=O)(Br)c1cccs1 [H, 2-Thiophenesulfonyl Bromide]	100
CCc1ccc(S(=O)(=O)Br)s1 [5-C2 H5]	500

Enter reported MIC observed with E. coli for O=S(=O)(Br)c1ccc(Cl)s1 [5-Cl, 5-Chloro-2-thiophenesulfonyl Bromide]
100

###

test system: B. subtilis
Property: MIC

A selection of reference data follows.
Molecule	MIC
O=S(=O)(Cl)c1sc(Br)cc1Br [3,5-Br2, reference compound]	> 100 µg/mL
O=S(=O)(Cl)c1sc(Br)c(Br)c1Br [3,4,5-Br3, reference compound]	> 100 µg/mL

Return reported MIC; argument: O=S(=O)(Cl)c1cc(Br)c(Br)s1 [4,5-Br2, reference compound]
> 100 µg/mL

###

Entries with their measured MIC, system T. mentagrophytes:

Look over these answered cases.
Molecule	Experimental target	Property	Meas value
O=S(=O)(Cl)c1sc(Br)c(Br)c1Br [3,4,5-Br3, reference compound]	T. mentagrophytes	MIC	> 100 µg/mL
O=S(=O)(Cl)c1sc(Br)cc1Br [3,5-Br2, reference compound]	T. mentagrophytes	MIC	> 100 µg/mL
O=S(=O)(Cl)c1cccs1 [H, 2-thiophenesulfonyl chloride, reference compound]	T. mentagrophytes	MIC	> 500 µg/mL

Proceed to the following item.
Fill in the recorded MIC for this molecule, with T. mentagrophytes as test system: "Cc1ccc(S(=O)(=O)Br)s1"
> 100 µg/mL

###

A set of compounds tested on C. pelliculosa, with measured MIC:

Compound	MIC
O=S(=O)(Cl)c1cccs1 [H, 2-thiophenesulfonyl chloride, reference compound]	> 500 µg/mL
O=S(=O)(Cl)c1sc(Br)c(Br)c1Br [3,4,5-Br3, reference compound]	> 100 µg/mL
O=S(=O)(Cl)c1sc(Br)cc1Br [3,5-Br2, reference compound]	> 100 µg/mL

Now for another entry.
# lookup: MIC of "Cc1ccc(S(=O)(=O)Br)s1"
> 100 µg/mL

###

Notes on MIC obtained with A. aerogenes.

Compound	MIC
O=S(=O)(Cl)c1cc(Br)c(Br)s1 [4,5-Br2, reference compound]	> 100 µg/mL
O=S(=O)(Cl)c1cccs1 [H, 2-thiophenesulfonyl chloride, reference compound]	> 500 µg/mL
Cc1ccc(S(=O)(=O)Br)s1 [5-CH3]	> 100 µg/mL

Kindly review the next compound as well.
Param item = O=S(=O)(Cl)c1sc(Br)cc1Br [3,5-Br2, reference compound] ; retrieve measured MIC.
> 100 µg/mL

###

Entries below carry reported MIC on S. aureus.

Molecule	Property	Meas value
O=S(=O)(Cl)c1sc(Br)cc1Br [3,5-Br2, reference compound]	MIC	> 100 µg/mL
O=S(=O)(Cl)c1sc(Br)c(Br)c1Br [3,4,5-Br3, reference compound]	MIC	> 100 µg/mL
O=S(=O)(Cl)c1cc(Br)c(Br)s1 [4,5-Br2, reference compound]	MIC	> 100 µg/mL

Okay, next one:
// lookup MIC for O=S(=O)(Cl)c1cccs1 [H, 2-thiophenesulfonyl chloride, reference compound]
> 500 µg/mL
